- assay_text: Solubility of fluvastatin sodium in solvents
- Assay type: physicochemical
- test_context: in water at 100° C.; read-out: Concentration of solution obtainable (solubility)

{"molecule": "CC(C)n1c(/C=C/C(O)CC(O)CC(=O)O)c(-c2ccc(F)cc2)c2ccccc21 (stereo not shown) [Fluvastatin sodium]", "solubility": "≥ 375 mg/mL"}
